# tested system: mouse RORγ (Mus musculus, UniProt P51450)
# Construct: mouse RORγ, from Ile251 to Lys516; expressed in transfected cells; host or cells: CHO cells (Chinese hamster ovary), transient co-transfection with pG5-Luc
# Sequence (P51450 251-516): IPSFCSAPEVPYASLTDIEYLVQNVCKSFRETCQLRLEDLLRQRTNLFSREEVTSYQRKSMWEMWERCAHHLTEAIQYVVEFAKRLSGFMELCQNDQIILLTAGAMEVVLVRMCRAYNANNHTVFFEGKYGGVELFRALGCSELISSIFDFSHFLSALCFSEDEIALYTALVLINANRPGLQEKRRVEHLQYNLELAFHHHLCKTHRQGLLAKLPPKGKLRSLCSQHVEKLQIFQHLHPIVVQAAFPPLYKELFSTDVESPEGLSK
# assay overview: In vitro assay of inhibitory effect against RORγ transcriptional activity (GAL4-mRORγ LBD luciferase reporter gene assay in CHO cells)
# Type: cell-based
# recorded conditions: GAL4-mRORγ LBD / pG5-Luc in CHO cells, 2 days incubation
measured endpoint: EC50 (nM)

{"compound": "CC1=C(C(C)C)C(C)(c2ccc(CCC(C)(C)C)c(Cl)c2)NC(=O)N1CCCC(=O)O (racemic)", "EC50, nM": 18}
{"compound": "CC(C)C1=CN(C[C@H]2C[C@H](C(=O)O)C2)C(=O)N[C@@]1(C)c1ccc(CCC(C)(C)C)c(Cl)c1", "EC50, nM": 14}
{"compound": "CC(C)(C)CCc1ccc(C2NC(=O)N(CCCC(=O)O)C=C2C(C)(C)C)cc1Cl (racemic) [Example 8]", "EC50, nM": 22}
{"compound": "CC(C)C1=CN([C@H]2C[C@H](CC(=O)O)C2)C(=O)N[C@@]1(C)c1ccc(CCC(C)(C)C)c(Cl)c1", "EC50, nM": 21}
{"compound": "CC(C)C1=CN([C@H]2CC[C@H](C(=O)O)CC2)C(=O)N[C@]1(C)c1ccc(CCC(C)(C)C)c(Cl)c1", "EC50, nM": 10800}

a. CC(C)(C)CCc1ccc(C2(C)NC(=O)N(CCCC(=O)O)C=C2C2CN(S(C)(=O)=O)C2)cc1Cl (racemic)
b. CC(C)C1=CN([C@H]2C[C@@H](C(=O)O)C2)C(=O)NC1(C)c1ccc(OCC(C)(C)C)c(Cl)c1 (mixture of isomers)
c. CC(C)C1=CN(CCc2ccccc2C(=O)O)C(=O)N[C@]1(C)c1ccc(CCC(C)(C)C)c(Cl)c1
d. CC(C)C1=CN(CCC(=O)O)C(=O)N[C@@]1(C)c1ccc(CCC(C)(C)C)c(Cl)c1
Ascending by EC50, please: list the compounds accordingly. Write the labels out in the order the request specifies. d, b, c, a
